system: U138-MG; experiment: Anticlonogenic activity against human U138MG cells assessed as decrease in cell survival after 14 days by methylene blue staining based method; format: functional; conditions: 336 h
measured.metric: pIC50
Interpret pIC50 as the negative base-10 log of the concentration measured in mol/L.

Report pIC50 for COC(=O)c1cc2c([nH]1)C(=O)C=C1N(C(=O)c3cc4cc(OC)c(OC)c(OC)c4[nH]3)C[C@H]3C[C@]123
11.74

Origin of values: ChEMBL document CHEMBL4229393
